melting point values for the compounds below.

// solved cases for melting point follow
INSERT INTO measurements (compound, measured_endpoint, test_result) VALUES
  ('O=c1cc(-c2cc(OCc3ccccc3)cc(OCc3ccccc3)c2)oc2cc(OCC(O)CN3CCN(c4ccccc4)CC3)ccc12 (centres unmarked)', 'melting point', '168 to 170 °C'),
  ('CC(C)(C)NCC(O)COc1ccc2c(=O)cc(-c3cc(O)cc(O)c3)oc2c1 (centres unmarked)', 'melting point', '153 °C (dec.)'),
  ('COc1cc(OC)cc(-c2cc(=O)c3ccc(OCC(O)CNC(C)(C)C)cc3o2)c1 (centres unmarked)', 'melting point', '145 to 146 °C'),
  ('CC(C)NCC(O)COc1ccc2c(=O)cc(-c3cc(OCc4ccccc4)cc(OCc4ccccc4)c3)oc2c1 (centres unmarked)', 'melting point', '173 to 174 °C'),
  ('COc1ccc(-c2cc(=O)c3ccc(OCC(O)CNC(C)C)cc3o2)cc1OC (centres unmarked)', 'melting point', '144 to 145 °C'),
  ('COc1cc(-c2cc(=O)c3ccc(OCC(O)CNC(C)C)cc3o2)cc(OC)c1OC (centres unmarked)', 'melting point', '106 to 107 °C'),
  ('CC(C)NCC(O)COc1ccc2c(=O)cc(-c3ccc(OCc4ccccc4)c(OCc4ccccc4)c3)oc2c1 (centres unmarked)', 'melting point', '177 to 179 °C'),
  ('COc1cc(-c2cc(=O)c3ccc(OCC(O)CNC(C)(C)C)cc3o2)cc(OC)c1OC (centres unmarked)', 'melting point', '119 to 120 °C'),
  ('COc1cc(OC)cc(-c2cc(=O)c3ccc(OCC(O)CN4CCN(c5ccccc5)CC4)cc3o2)c1 (centres unmarked)', 'melting point', '195 to 196 °C'),
  ('COc1cc(-c2cc(=O)c3ccc(OCC(O)CN4CCN(c5ccccc5)CC4)cc3o2)cc(OC)c1OC (centres unmarked)', 'melting point', '170 to 171 °C');

Problem: Could you tell me which melting point is on file for CC(C)(C)NCC(O)COc1ccc2c(=O)cc(-c3ccc(OCc4ccccc4)c(OCc4ccccc4)c3)oc2c1 (centres unmarked) ?
Solution: 159 to 161 °C

Problem: And COc1cc(OC)cc(-c2cc(=O)c3ccc(OCC(O)CNC(C)C)cc3o2)c1 (centres unmarked) ?
Solution: 155 to 156 °C

Problem: // next record COc1ccc(-c2cc(=O)c3ccc(OCC(O)CN4CCN(c5ccccc5)CC4)cc3o2)cc1OC (centres unmarked)
Solution: 191 to 193 °C

Problem: Another compound to look at: CC(C)(C)NCC(O)COc1ccc2oc(-c3ccc(OCc4ccccc4)c(OCc4ccccc4)c3)cc(=O)c2c1 (centres unmarked)
Solution: 156 to 157 °C
